details: in ethyl acetate, 298.2 K

| smiles record | solubility (mole fraction) |
| --- | --- |
| O=c1cc(-c2ccc(O)cc2)oc2cc(O)cc(O)c12 | 0.000241 |

* * *

details: in DMSO, 318.2 K

| smiles record | solubility (mole fraction) |
| --- | --- |
| O=c1cc(-c2ccc(O)cc2)oc2cc(O)cc(O)c12 | 0.418 |

* * *

conditions: in propylene glycol, 313.2 K

| smiles record | solubility (mole fraction) |
| --- | --- |
| O=c1cc(-c2ccc(O)cc2)oc2cc(O)cc(O)c12 | 0.0137 |

* * *

details: in ethylene glycol, 313.2 K

| smiles record | solubility (mole fraction) |
| --- | --- |
| O=c1cc(-c2ccc(O)cc2)oc2cc(O)cc(O)c12 | 0.00732 |

* * *

details: in methanol, 303.2 K

| smiles record | solubility (mole fraction) |
| --- | --- |
| O=c1cc(-c2ccc(O)cc2)oc2cc(O)cc(O)c12 | 0.000172 |

* * *

settings: in ethanol, 303.2 K

| smiles record | solubility (mole fraction) |
| --- | --- |
| O=c1cc(-c2ccc(O)cc2)oc2cc(O)cc(O)c12 | 0.000314 |

* * *

details: in PEG-400, 303.2 K
measurement type: solubility (mole fraction)

| smiles record | measurement type | reported value |
| --- | --- | --- |
| O=c1cc(-c2ccc(O)cc2)oc2cc(O)cc(O)c12 | solubility (mole fraction) | 0.405 |

* * *

details: in ethylene glycol, 308.2 K

| smiles record | solubility (mole fraction) |
| --- | --- |
| O=c1cc(-c2ccc(O)cc2)oc2cc(O)cc(O)c12 | 0.00644 |

* * *

conditions: in n-butanol, 318.2 K
measurement type: solubility (mole fraction)

| smiles record | measurement type | reported value |
| --- | --- | --- |
| O=c1cc(-c2ccc(O)cc2)oc2cc(O)cc(O)c12 | solubility (mole fraction) | 0.000918 |

* * *

details: in ethylene glycol, 318.2 K
measurement type: solubility (mole fraction)

| smiles record | measurement type | reported value |
| --- | --- | --- |
| O=c1cc(-c2ccc(O)cc2)oc2cc(O)cc(O)c12 | solubility (mole fraction) | 0.00822 |

* * *

conditions: in DMSO, 298.2 K
measurement type: solubility (mole fraction)

| smiles record | reported value |
| --- | --- |
| O=c1cc(-c2ccc(O)cc2)oc2cc(O)cc(O)c12 | 0.376 |

* * *

conditions: in ethanol, 313.2 K
measurement type: solubility (mole fraction)

| smiles record | measurement type | reported value |
| --- | --- | --- |
| O=c1cc(-c2ccc(O)cc2)oc2cc(O)cc(O)c12 | solubility (mole fraction) | 0.000426 |

* * *

settings: in n-butanol, 313.2 K
measurement type: solubility (mole fraction)

| smiles record | measurement type | reported value |
| --- | --- | --- |
| O=c1cc(-c2ccc(O)cc2)oc2cc(O)cc(O)c12 | solubility (mole fraction) | 0.000808 |

* * *

details: in water, 303.2 K
measurement type: solubility (mole fraction)

| smiles record | reported value |
| --- | --- |
| O=c1cc(-c2ccc(O)cc2)oc2cc(O)cc(O)c12 | 1.33e-06 |

* * *

details: in PEG-400, 308.2 K
measurement type: solubility (mole fraction)

| smiles record | reported value |
| --- | --- |
| O=c1cc(-c2ccc(O)cc2)oc2cc(O)cc(O)c12 | 0.413 |

* * *

settings: in isopropanol, 298.2 K
measurement type: solubility (mole fraction)

| smiles record | reported value |
| --- | --- |
| O=c1cc(-c2ccc(O)cc2)oc2cc(O)cc(O)c12 | 0.00038 |

* * *

details: in PEG-400, 298.2 K
measurement type: solubility (mole fraction)

| smiles record | reported value |
| --- | --- |
| O=c1cc(-c2ccc(O)cc2)oc2cc(O)cc(O)c12 | 0.397 |

* * *

conditions: in ethylene glycol, 298.2 K
measurement type: solubility (mole fraction)

| smiles record | measurement type | reported value |
| --- | --- | --- |
| O=c1cc(-c2ccc(O)cc2)oc2cc(O)cc(O)c12 | solubility (mole fraction) | 0.00522 |

* * *

conditions: in ethanol, 298.2 K

| smiles record | solubility (mole fraction) |
| --- | --- |
| O=c1cc(-c2ccc(O)cc2)oc2cc(O)cc(O)c12 | 0.00025 |

* * *

conditions: in propylene glycol, 308.2 K

| smiles record | solubility (mole fraction) |
| --- | --- |
| O=c1cc(-c2ccc(O)cc2)oc2cc(O)cc(O)c12 | 0.0124 |

* * *

settings: in transcutol, 298.2 K

| smiles record | solubility (mole fraction) |
| --- | --- |
| O=c1cc(-c2ccc(O)cc2)oc2cc(O)cc(O)c12 | 0.334 |

* * *

settings: in water, 308.2 K

| smiles record | solubility (mole fraction) |
| --- | --- |
| O=c1cc(-c2ccc(O)cc2)oc2cc(O)cc(O)c12 | 1.73e-06 |

* * *

conditions: in n-butanol, 303.2 K

| smiles record | solubility (mole fraction) |
| --- | --- |
| O=c1cc(-c2ccc(O)cc2)oc2cc(O)cc(O)c12 | 0.00063 |

* * *

conditions: in PEG-400, 318.2 K

| smiles record | solubility (mole fraction) |
| --- | --- |
| O=c1cc(-c2ccc(O)cc2)oc2cc(O)cc(O)c12 | 0.427 |

* * *

conditions: in PEG-400, 313.2 K

| smiles record | solubility (mole fraction) |
| --- | --- |
| O=c1cc(-c2ccc(O)cc2)oc2cc(O)cc(O)c12 | 0.42 |

* * *

conditions: in DMSO, 303.2 K

| smiles record | solubility (mole fraction) |
| --- | --- |
| O=c1cc(-c2ccc(O)cc2)oc2cc(O)cc(O)c12 | 0.384 |

* * *

settings: in transcutol, 313.2 K
measurement type: solubility (mole fraction)

| smiles record | measurement type | reported value |
| --- | --- | --- |
| O=c1cc(-c2ccc(O)cc2)oc2cc(O)cc(O)c12 | solubility (mole fraction) | 0.371 |

* * *

conditions: in ethylene glycol, 303.2 K

| smiles record | solubility (mole fraction) |
| --- | --- |
| O=c1cc(-c2ccc(O)cc2)oc2cc(O)cc(O)c12 | 0.00573 |

* * *

conditions: in water, 313.2 K
measurement type: solubility (mole fraction)

| smiles record | measurement type | reported value |
| --- | --- | --- |
| O=c1cc(-c2ccc(O)cc2)oc2cc(O)cc(O)c12 | solubility (mole fraction) | 2.27e-06 |

* * *

details: in n-butanol, 308.2 K

| smiles record | solubility (mole fraction) |
| --- | --- |
| O=c1cc(-c2ccc(O)cc2)oc2cc(O)cc(O)c12 | 0.000713 |

* * *

conditions: in ethyl acetate, 303.2 K
measurement type: solubility (mole fraction)

| smiles record | reported value |
| --- | --- |
| O=c1cc(-c2ccc(O)cc2)oc2cc(O)cc(O)c12 | 0.000284 |

* * *

conditions: in DMSO, 308.2 K

| smiles record | solubility (mole fraction) |
| --- | --- |
| O=c1cc(-c2ccc(O)cc2)oc2cc(O)cc(O)c12 | 0.395 |

* * *

settings: in ethanol, 318.2 K
measurement type: solubility (mole fraction)

| smiles record | reported value |
| --- | --- |
| O=c1cc(-c2ccc(O)cc2)oc2cc(O)cc(O)c12 | 0.000486 |

* * *

conditions: in sec-butanol, 298.2 K
measurement type: solubility (mole fraction)

| smiles record | reported value |
| --- | --- |
| O=c1cc(-c2ccc(O)cc2)oc2cc(O)cc(O)c12 | 0.000534 |

* * *

details: in n-butanol, 298.2 K
measurement type: solubility (mole fraction)

| smiles record | measurement type | reported value |
| --- | --- | --- |
| O=c1cc(-c2ccc(O)cc2)oc2cc(O)cc(O)c12 | solubility (mole fraction) | 0.000562 |

* * *

conditions: in water, 318.2 K
measurement type: solubility (mole fraction)

| smiles record | reported value |
| --- | --- |
| O=c1cc(-c2ccc(O)cc2)oc2cc(O)cc(O)c12 | 3.08e-06 |

* * *

settings: in ethyl acetate, 308.2 K
measurement type: solubility (mole fraction)

| smiles record | reported value |
| --- | --- |
| O=c1cc(-c2ccc(O)cc2)oc2cc(O)cc(O)c12 | 0.000326 |

* * *

conditions: in sec-butanol, 303.2 K
measurement type: solubility (mole fraction)

| smiles record | reported value |
| --- | --- |
| O=c1cc(-c2ccc(O)cc2)oc2cc(O)cc(O)c12 | 0.000603 |

* * *

settings: in methanol, 318.2 K

| smiles record | solubility (mole fraction) |
| --- | --- |
| O=c1cc(-c2ccc(O)cc2)oc2cc(O)cc(O)c12 | 0.000296 |

Entry source: BigSolDB 2.1
